experiment: inhibitors of TNFa-induced NFkB p65 translocation, primary screen, imaging, HUVEC, MLSMR starter and 10KST1 sets (AID 438); conditions: HUVEC TNFa-induced p65 nuclear translocation; at 2 µM, stronger effect = higher value, 0% TNFa-plus-vehicle, 100% no-TNFa wells;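 further: compound added about 3h40 before a 20 min TNFalpha stimulation; signal is the nuclear over cytoplasmic p65 intensity ratio per well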
The source made the active and inactive calls.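 How the source made its calls: active means inhibition above 20% together with a positive visual image hit; inconclusive means visual image hit but inhibition not above 20%; inactive means no visual image hit.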
Provide the recorded inhibition for the entries that follow.

Input line: Bench note: what inhibition did CN(C)c1ccnc(NCc2ccccc2)c1C#N show?
Output line: 2.1% (inactive)

Input line: Bench note: what inhibition did COc1cccc(-c2noc(C3CCCN(C(=O)Cc4ccccc4)C3)n2)c1 (stereo unspecified) show?
Output line: -2.8% (inactive)

Input line: Bench note: what inhibition did Cc1cc(=O)n2nc(N3CCCC(C(=O)N4CCc5ccccc54)C3)sc2n1 (stereo unspecified) show?
Output line: -7.5% (inactive)

Input line: Bench note: what inhibition did N#Cc1cc(Oc2cccc3cccnc23)c(-n2nnc3ccccc32)cc1C#N show?
Output line: -0.1% (inactive)

Input line: Bench note: what inhibition did O=C(CNc1ccc(Oc2ccccc2)cc1)N1CCOCC1 show?
Output line: -26.3% (inactive)

Input line: Bench note: what inhibition did CC1(C)Cc2c(C#N)c(N3CCOCC3)nc(Cc3ccccc3)c2CO1 show?
Output line: -0.5% (inactive)

* * *

experiment: DUSP6 inhibitors restoring Erk phosphorylation by chemical complementation, primary imaging in DUSP6-transfected HeLa (AID 609); details: HeLa MKP-3 transfected, phospho-Erk imaging KS statistic; measured here: nuclear c-Myc green intensity z-score; at 10 µM; cells stimulated with TPA for 15 min
Output: class label from z-score. Mapping: group A (below -0.5), group B (-0.5 to below 0.5), group C (0.5 or more)

Input line: Please let me know in which category the item COC(=O)CSc1nc(C)c(Oc2ccccc2)c(=O)[nH]1 belongs.
Output line: group C

Input line: Please let me know in which category the item COCCNc1nc2c(c(=O)n(C)c(=O)n2C)n1Cc1cccc(C(F)(F)F)c1 belongs.
Output line: group A

Input line: Please let me know in which category the item C=C(C)CSc1nc(N)c2c3c(sc2n1)CCC3 belongs.
Output line: group C

Input line: Please let me know in which category the item COc1ccc(CSc2nnc3n(C)c(=O)c4c5c(sc4n23)CCCC5)cc1 belongs.
Output line: group A

Input line: Please let me know in which category the item O=c1[nH]c(CN(CCO)CCO)nc2c1C1(CCCCC1)Cc1ccccc1-2 belongs.
Output line: group B

Input line: Please let me know in which category the item Cn1c[n+](C)cc1/C=N/O belongs.
Output line: group B

Input line: Please let me know in which category the item Cc1ccc(S(=O)(=O)c2cc3c(=O)n4cccc(C)c4nc3n(CC3CCCO3)c2=N)cc1 (stereo not drawn) belongs.
Output line: group C

Input line: Please let me know in which category the item CC(=O)Nc1ccc(OC(=O)CC2SC(=O)NC2=O)cc1 (stereo not drawn) belongs.
Output line: group C

Input line: Please let me know in which category the item COc1ccccc1NC(=O)CSc1nnc(-c2ccc(NC(C)=O)cc2)n1C belongs.
Output line: group B

Input line: Please let me know in which category the item COc1ccccc1C1/C(=C(\O)c2ccc3c(c2)OCCO3)C(=O)C(=O)N1CCCN(C)C (stereo not drawn) belongs.
Output line: group A

Input line: Please let me know in which category the item Cc1[nH]nc(-c2ccc(O)cc2O)c1Oc1ccccc1 belongs.
Output line: group B

Input line: Please let me know in which category the item COC(=O)c1ccc(Cn2c(O)c(N=O)c3ccccc32)o1 belongs.
Output line: group B

Input line: Please let me know in which category the item COC(=O)c1c(C)[nH]c(C(=O)OCc2ccc(F)cc2)c1C belongs.
Output line: group A

Input line: Please let me know in which category the item Cc1ccc(-n2c(SCC(=O)NCc3ccco3)nc3nc4c(cc3c2=O)COC(C)(C)C4)cc1 belongs.
Output line: group A

Input line: Please let me know in which category the item C=CCn1c(=O)c(C(=O)NCCN(CC)CC)c(O)c2ccccc21 belongs.
Output line: group B

Input line: Please let me know in which category the item COc1ccc(Nc2cc(C)nc(-n3nc(C)cc3C)n2)cc1 belongs.
Output line: group B

Input line: Please let me know in which category the item CCSc1nnc(NC(=O)NC(CC)(C(F)(F)F)C(F)(F)F)s1 belongs.
Output line: group A

Input line: Please let me know in which category the item CC(C)c1nc(N2CCOCC2)c(C#N)c2c1COC(C)(C)C2 belongs.
Output line: group A

Input line: Please let me know in which category the item COc1ccc(OC)c(C2C(C#N)=C(N)Oc3cc(C)n(Cc4ccccn4)c(=O)c32)c1 (stereo not drawn) belongs.
Output line: group C

Input line: Please let me know in which category the item COC(=O)C(NC(C)=O)(Nc1ccc(Br)cn1)C(F)(F)F (stereo not drawn) belongs.
Output line: group C

Input line: Please let me know in which category the item CCOc1cccc(N2C(=O)CC(N(CCc3ccc(OC)c(OC)c3)C(=O)CC)C2=O)c1 (stereo not drawn) belongs.
Output line: group B

Input line: Please let me know in which category the item CCOC(=O)CC(=O)CSc1nnc2sc3ccccc3n12 belongs.
Output line: group C

* * *

experiment: inhibitors of mutant huntingtin aggregation, primary screen, imaging, exon1htt(103Q)mCFP cells, high-content imaging (AID 483); settings: exon1htt(103Q)mCFP cell line, aggregate imaging, at 2 µM; stronger effect = higher value;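 further: compound exposure lasted 3 days before fixation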
Provide the recorded inhibition of aggregation for the entries that follow.
Could you give me the number in %? Just the number is fine.

Input line: Bench note: what inhibition of aggregation did N#CC1=C(SCC(=O)NC23CC4CC(CC(C4)C2)C3)NC(=O)C(C#N)C12CCCCC2 (stereo unspecified) show?
Output line: 16.9

Input line: Bench note: what inhibition of aggregation did COc1ccccc1CNC(=O)Nc1cccs1 show?
Output line: 9.4

Input line: Bench note: what inhibition of aggregation did CCOC(=O)Cn1c(=O)c(-c2ccccc2N)nc2ccccc21 show?
Output line: 2.1

Input line: Bench note: what inhibition of aggregation did CCOC(=O)c1[nH]nc(N)c1NC(=O)c1ccc(Cl)cc1Cl show?
Output line: 3.8

Input line: Bench note: what inhibition of aggregation did CCOC(=O)c1ccc(Oc2cc(C)nc(SC)n2)cc1 show?
Output line: 13.3

Input line: Bench note: what inhibition of aggregation did CCc1ccccc1NC(=O)CSc1ncn[nH]1 show?
Output line: -8.6

Input line: Bench note: what inhibition of aggregation did Nc1nc2ccccc2n1C(=O)CCc1ccccc1 show?
Output line: -11.5

Input line: Bench note: what inhibition of aggregation did O=C(NCC1CCCO1)c1ccccc1-c1nc(-c2ccc(Cl)cc2)no1 (stereo unspecified) show?
Output line: 1.8

Input line: Bench note: what inhibition of aggregation did Cn1nc(CC(=O)Nc2ccc(N3CCN(C(=O)OC(C)(C)C)CC3)cc2)c2ccccc2c1=O show?
Output line: -11.8

Input line: Bench note: what inhibition of aggregation did CCOc1cc(C(=O)Nc2ncccn2)cc(OCC)c1OCC show?
Output line: 38

Input line: Bench note: what inhibition of aggregation did O=C(NCc1ccccn1)c1cccs1 show?
Output line: 2.9

Input line: Bench note: what inhibition of aggregation did COc1ccc(C)cc1NC(=O)CCC(=O)Nc1ccc2nc(N3CCN(C)CC3)cc(C)c2c1 show?
Output line: -9.5

Input line: Bench note: what inhibition of aggregation did CCOC(=O)c1sc(NC(=O)C2CC=CCC2C(=O)O)nc1C (stereo unspecified) show?
Output line: -2.8

Input line: Bench note: what inhibition of aggregation did O=C(NCc1cccnc1)C1CCCN(S(=O)(=O)c2ccc(Cl)cc2)C1 (stereo unspecified) show?
Output line: -4.5

Input line: Bench note: what inhibition of aggregation did CN(Cc1ccccc1)C(=O)CNC(=O)Cn1cnc2ccccc2c1=O show?
Output line: -13.9

Input line: Bench note: what inhibition of aggregation did O=C(c1ccc2c(c1)[nH]c(=S)n1c3ccccc3nc21)N1CCN(c2ncccn2)CC1 show?
Output line: -5.1

Input line: Bench note: what inhibition of aggregation did CCn1c(CSc2nc(C)cc(C)n2)nnc1SCC(=O)Nc1ccccc1 show?
Output line: -15.5

Input line: Bench note: what inhibition of aggregation did COc1ccc(-c2ccc(-c3noc(-c4ccccc4OC)n3)c(OC)n2)cc1 show?
Output line: -30.2

Input line: Bench note: what inhibition of aggregation did COCCNC(=O)C1CCCN(c2ncccn2)C1 (stereo unspecified) show?
Output line: 5.6

Input line: Bench note: what inhibition of aggregation did CCOC(=O)N1CCN(C(=O)Cn2ncn3nc(-c4cccs4)cc3c2=O)CC1 show?
Output line: 14.8

Input line: Bench note: what inhibition of aggregation did O=C(O)c1cccc(S(=O)(=O)N2CCOCC2)c1 show?
Output line: 12.5

Input line: Bench note: what inhibition of aggregation did O=C(c1ccccc1)c1ccncc1 show?
Output line: -9.4

Input line: Bench note: what inhibition of aggregation did Cc1ccccc1-n1nc(C)c2cc(C(=O)NCc3cccnc3)sc21 show?
Output line: -18.9

Input line: Bench note: what inhibition of aggregation did CN(C)C(=O)N1CCCC(C(=O)NCc2ccccc2)C1 (stereo unspecified) show?
Output line: -1.5

Input line: Bench note: what inhibition of aggregation did COc1ccc(C(=O)Nc2cccc(C)c2)cc1S(=O)(=O)N1CCOCC1 show?
Output line: 0.7

Input line: Bench note: what inhibition of aggregation did O=C(NCc1nc2ccccc2[nH]1)c1ccc(Cl)c(S(=O)(=O)N2CCCC2)c1 show?
Output line: -35.2

Input line: Bench note: what inhibition of aggregation did Cc1cccc(Cn2c(SCCN3CCCCC3)nc3c2c(=O)[nH]c(=O)n3C)c1 show?
Output line: -13.5

Input line: Bench note: what inhibition of aggregation did Nc1cc(CN2C(=O)c3ccccc3C2=O)cc(Cl)c1O show?
Output line: 14.9

Input line: Bench note: what inhibition of aggregation did O=C(O)c1ccccc1S(=O)(=O)NCC(O)COc1ccc(Br)cc1 (stereo unspecified) show?
Output line: -17

Input line: Bench note: what inhibition of aggregation did O=C1CCCc2nc(N3CCCCC3)sc21 show?
Output line: -20.4

Input line: Bench note: what inhibition of aggregation did Cc1nc2ccccc2c2oc(C(=O)NCCCN3CCCC3=O)cc12 show?
Output line: -37.4

Input line: Bench note: what inhibition of aggregation did COc1ccc(C2=NOC(C(=O)NC3CCCCC3)C2)cc1OC (stereo unspecified) show?
Output line: 1.9

Input line: Bench note: what inhibition of aggregation did COCCCNC(=O)c1ccccc1NS(=O)(=O)c1ccc(C)cc1 show?
Output line: -9

Input line: Bench note: what inhibition of aggregation did COc1ccccc1-c1nnc(SCC(=O)NC2CCCCC2)o1 show?
Output line: -6.8

Input line: Bench note: what inhibition of aggregation did O=C(CS(=O)CC(=O)Nc1cccc2c1CCCC2)Nc1ccc(F)cc1 (stereo unspecified) show?
Output line: -8.6

Input line: Bench note: what inhibition of aggregation did c1ccc(CC2CCN(C(c3cccs3)c3nnnn3C3CCCC3)CC2)cc1 (stereo unspecified) show?
Output line: 7.1

Input line: Bench note: what inhibition of aggregation did CC(=O)Nc1ccc(S(=O)(=O)N2CCC(NC(C)=O)(c3cccc(F)c3)CC2)cc1 show?
Output line: -25.6

Input line: Bench note: what inhibition of aggregation did c1ccc(OCCCn2nnc(-c3cccnc3)n2)cc1 show?
Output line: 12.8

Input line: Bench note: what inhibition of aggregation did COc1ccc(C(C)=O)c(OC(=O)c2ccc(OC)c(OC)c2)c1 show?
Output line: 3.6

Input line: Bench note: what inhibition of aggregation did CC1CCCN(S(=O)(=O)c2coc(C(N)=O)c2)C1 (stereo unspecified) show?
Output line: -15.4

Input line: Bench note: what inhibition of aggregation did CCCc1nnc(NC(=O)CCC(=O)N2CCN(CCOc3ccc(C)cc3)CC2)s1 show?
Output line: -0.2

Input line: Bench note: what inhibition of aggregation did Cc1nc2ccccc2c2c1C(=O)N(CCC1=CCCCC1)C2=O show?
Output line: -3.7

Input line: Bench note: what inhibition of aggregation did COc1ccc(C2C(C(=O)c3sc(C)nc3C)=C(O)C(=O)N2CCN(C)C)cc1OC (stereo unspecified) show?
Output line: -5.5

Input line: Bench note: what inhibition of aggregation did CCc1c(C)c2ccc(OCC(=O)OC)cc2oc1=O show?
Output line: 9.8

Input line: Bench note: what inhibition of aggregation did CCCc1nnc2n1N=C(c1ccc(-c3cc(Cl)ccc3Cl)o1)CS2 show?
Output line: 4.8

Input line: Bench note: what inhibition of aggregation did COc1ccc(-c2nnn(CC(=O)c3ccc4c(c3)OCCO4)n2)cc1OC show?
Output line: -8.1

Data origin: PubChem BioAssay
